molecular target: human ether-à-go-go-related gene (hERG) potassium channel (human, UniProt Q12809); assay: primary screen, population patch clamp on CHO cells stably expressing hERG; higher = less effect of the substance;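 note: peak tail current of the secondary pulse compared with the same well before compound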
Sequence (Q12809 whole entry, looked up): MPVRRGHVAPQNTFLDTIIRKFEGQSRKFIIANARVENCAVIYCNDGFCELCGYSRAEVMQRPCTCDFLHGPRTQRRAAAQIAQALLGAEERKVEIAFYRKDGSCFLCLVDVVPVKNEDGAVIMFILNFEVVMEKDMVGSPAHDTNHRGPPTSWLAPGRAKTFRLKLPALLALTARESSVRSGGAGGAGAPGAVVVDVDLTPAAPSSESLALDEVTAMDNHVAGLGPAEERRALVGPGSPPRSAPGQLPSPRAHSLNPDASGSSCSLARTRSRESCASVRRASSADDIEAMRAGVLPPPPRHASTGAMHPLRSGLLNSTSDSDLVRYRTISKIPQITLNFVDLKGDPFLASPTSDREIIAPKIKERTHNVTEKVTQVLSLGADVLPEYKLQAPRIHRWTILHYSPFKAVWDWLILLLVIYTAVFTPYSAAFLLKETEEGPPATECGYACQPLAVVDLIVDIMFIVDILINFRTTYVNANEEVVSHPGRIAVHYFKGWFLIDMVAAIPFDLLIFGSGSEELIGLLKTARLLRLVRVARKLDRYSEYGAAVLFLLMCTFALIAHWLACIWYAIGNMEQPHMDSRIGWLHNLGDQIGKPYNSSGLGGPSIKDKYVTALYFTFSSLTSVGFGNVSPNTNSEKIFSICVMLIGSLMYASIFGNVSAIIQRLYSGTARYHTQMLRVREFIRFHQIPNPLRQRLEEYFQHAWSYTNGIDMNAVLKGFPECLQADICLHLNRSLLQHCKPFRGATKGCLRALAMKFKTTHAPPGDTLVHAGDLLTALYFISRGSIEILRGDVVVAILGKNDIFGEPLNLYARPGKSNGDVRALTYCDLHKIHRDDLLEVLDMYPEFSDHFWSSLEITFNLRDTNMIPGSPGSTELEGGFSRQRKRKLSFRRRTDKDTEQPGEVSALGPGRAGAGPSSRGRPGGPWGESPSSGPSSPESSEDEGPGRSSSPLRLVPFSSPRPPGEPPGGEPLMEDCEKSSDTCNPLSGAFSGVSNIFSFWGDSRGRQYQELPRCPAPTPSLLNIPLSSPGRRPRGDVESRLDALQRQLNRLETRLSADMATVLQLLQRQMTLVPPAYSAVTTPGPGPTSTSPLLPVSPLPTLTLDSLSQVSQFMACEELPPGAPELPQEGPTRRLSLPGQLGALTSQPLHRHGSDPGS
The campaign covered roughly 310,000 compounds. About 14,000 (4.5%) showed an effect of 50% or more. The effect is printed as a negative number. This excerpt belongs to a sample that is enriched for strong results.
Assign MET whenever hERG current change (%, negative = inhibition) at 10uM does not fall below -20%; assign NOT MET whenever it does.

{"columns": ["molecule", "class.label"],
 "data": [
  ["COCCNC(=O)Cn1cc(C(=S)N2CCCCC2)c2ccccc21", "MET"],
  ["CCOC(=O)C1(CCOc2ccccc2)CCN(Cc2ccc(C(=O)OC)cc2)CC1", "NOT MET"],
  ["CCOC(=O)C1(Cc2cccc(OC)c2)CCN(Cc2cnc(SC)nc2)CC1", "NOT MET"],
  ["CCCn1ccnc1SC(C)C(=O)Nc1c(C)n(C)n(-c2ccccc2)c1=O (stereo not shown)", "MET"],
  ["CCOC(=O)C1(CCOc2ccccc2)CCN(Cc2ccncc2)CC1", "NOT MET"],
  ["CCOC(=O)C1(CCOc2ccccc2)CCN(Cc2ccc(C#CCCO)cc2)CC1", "NOT MET"],
  ["CCOC(=O)C1(Cc2ccccc2)CCCN(Cc2ccncc2)C1 (stereo not shown)", "MET"],
  ["CN(Cc1cc2ccccc2[nH]c1=O)C(=O)COc1ccccc1", "MET"],
  ["CCOC(=O)C1(CCOc2ccccc2)CCN(Cc2cnc(SC)nc2)CC1", "NOT MET"],
  ["CC1=C(C(=O)OCC2CCCO2)C(c2ccccc2)C2=C(CCCC2=O)N1 (stereo not shown)", "MET"]
]}
